# Substrate: PET
# assay-procedure: Proxy for plastic degradation [HPLC-UV] (mmol)
# protocol-conditions: pH 8; 30 °C
Provide the reported Proxy for plastic degradation of each item.

Requested field: Proxy for plastic degradation. Item: unnamed (protein) MEKPVVFENEGQQIVGMLHAPDGAEGLSPAVVMFHGFTGTKVEPHRLFVKTARRLAEEGFYVLRFDFRGSGDSEGEFREMTLEGEISDAKASLDFILSQPGVDRGRIGVIGLSMGGGVAACLAGRDERVRAVALWAAVSEDPPDLFQELIKTFEERPDKSVDYVDMGGNLVGKGFFEDLRNVKPLQEISGFEGPVLIVHGDNDQTVSVEHAYRFYERLKGKHPLTALHIIRGADHTFNSHEWEREVIEVTVDFMKRA 0

Requested field: Proxy for plastic degradation. Item: unnamed (protein) SRTRQILTEIYYPADTAGEEVPVAEPGAEGFPAVSFAHGRRMAWSAYSNFWEMLAPQGYIIVFPCTEMGLSPNHLDFALDCLFDAHKLQELNDLGTSIFYQKVGDTFAVTGHSMGGVVSFIAAIEDPTVTAIANFACGQASSYDLASVTAPALIFAGSDDYMTPVDQYQLLFYNELSSTCKALLILQGANHCQYAQYTSVCDDIEDQYPDPALTRTQQHAVTSTLLIPWLDYMLKGDEEAWTEFNVLAGDGDVTETHMICDLPFNTPTPASPPTPFVPATSSGGIGTLIVVISGTLALLSSRRK 0

Sourced from the PETadex activity labels (doi:10.1093/ismejo/wraf068)
